Target: JAK3 (catalytic domain, His-tag) (Homo sapiens, UniProt P52333)
Construct: All four purified enzymes contain only the catalytic domain; His (N); purchased Carna Biosciences, Inc; host or cells: baculovirus expression system
Sequence (P52333 822-1111 limits assumed): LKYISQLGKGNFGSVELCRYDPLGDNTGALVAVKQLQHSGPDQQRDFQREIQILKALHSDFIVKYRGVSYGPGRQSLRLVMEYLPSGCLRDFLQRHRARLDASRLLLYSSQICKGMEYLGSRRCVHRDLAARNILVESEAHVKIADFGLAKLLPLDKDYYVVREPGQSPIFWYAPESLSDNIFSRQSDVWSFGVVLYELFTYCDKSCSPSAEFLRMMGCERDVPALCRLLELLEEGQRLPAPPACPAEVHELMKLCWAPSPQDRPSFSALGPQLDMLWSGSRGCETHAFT
Experiment: JAK kinase assay (HTRF, phosphorylation of TK substrate-biotin), JAK3
Format: biochemical
Details: ATP at Km (2 μM); read-out: JAK3 kinase inhibitory activity (EC50 indicator)
OBSERVATION_TYPE: EC50

Some solved entries appear below for comparison.
>  <COMPOUND>
O=C(Cc1ccncc1)N1CCN(c2ncnc3[nH]ccc23)CC12CC2

>  <EC50>
0.1 to 0.5 µM

$$$$
>  <COMPOUND>
O=C(Cc1cccnc1)N1CCN(c2ncnc3[nH]ccc23)CC12CC2

>  <EC50>
0.1 to 0.5 µM

$$$$
>  <COMPOUND>
N#CCCN1CCCC(C(=O)N2CCN(c3ncnc4[nH]ccc34)CC23CC3)C1 (centres unmarked)

>  <EC50>
> 0.5 µM

$$$$
>  <COMPOUND>
Cc1c[nH]c2ncnc(N3CCN(C(=O)c4cnc5ccccc5n4)C4(CC4)C3)c12

>  <EC50>
> 0.5 µM

$$$$

For `O=C(c1cccnc1)N1[C@@H]2CC[C@H]1CN(c1ncnc3[nH]ccc13)C2` the compound record lists EC50 as > 0.5 µM
